- TEST_METHOD_NOTES: gradient 5% acetonitrile 3 min, to 50% in 2 min, to 85% in 15 min, held 3 min, 100 µL/min
- CONDITIONS_USED: column: Zorbax Extend-C18 2.1 x 50 mm; eluents: water / acetonitrile, 0.1% formic acid
Assign labels as follows, please: rule met for RP-LC retention time below 700 s; rule not met for RP-LC retention time equal to or exceeding 700 s.

COMPOUND | CLASS_ASSIGNMENT
COc1ccc2c(c1)C1(CCN(S(=O)(=O)c3ccc4c(c3)oc(=O)n4C)C1)C(=O)N2 (stereo not given) | rule not met
O=S(=O)(CCOc1ccc(F)cc1)Nc1ncccn1 | rule met
Cc1ccc(NC(=O)N2CCCC(C)(C(=O)NCc3ccccc3C)C2)c(C)c1 (stereo not given) | rule not met
CCCN(c1cccc(Cl)c1)c1nc(C(=O)OCC)nc2ccccc12 | rule not met
CCN(CC)CCNS(=O)(=O)c1cc(-c2cc(C)[nH]n2)sc1C | rule met
CCCCC(=O)N1CCCN(C2=NS(=O)(=O)C(c3ccc(C)cc3)=C2C)CC1 | rule not met
CC(=O)Nc1ccc(-n2cnc(C(=O)NCc3ccccc3F)c2)nc1 | rule met
Cc1ccc(CNC(=O)NCCC2CCN(S(=O)(=O)c3ccc(F)cc3)CC2)cc1 | rule not met
COC(=O)c1ccc2c(=O)n(-c3ccc(OC)c(OC)c3)c(N3CCC(C)CC3)nc2c1 | rule not met

----------
- TEST_METHOD_NOTES: gradient 5% acetonitrile 3 min, to 50% in 2 min, to 85% in 15 min, held 3 min, 100 µL/min
- CONDITIONS_USED: column: Zorbax Extend-C18 2.1 x 50 mm; eluents: water / acetonitrile, 0.1% formic acid
Short version: RP-LC retention time at least 1000 s is Fulfilled, less is Not fulfilled.

COMPOUND | CLASS_ASSIGNMENT
Cc1ccccc1-c1nnc(CSc2nnc(NC(=O)c3cccs3)s2)o1 | Not fulfilled
O=c1c2ccccc2n(Cc2nc(-c3cccc(C(F)(F)F)c3)no2)c(=O)n1CC1CCCO1 (stereo not given) | Fulfilled
Cc1cc(C)c(S(=O)(=O)N2CCc3c(c(-c4nnc(-c5ccc(F)cc5)o4)nn3C)C2)cc1C | Fulfilled
Cc1ccc(-n2c(=O)n(CC(=O)NCCCN(C)C)c3cccnc32)cc1 | Not fulfilled
O=C(Nc1ccc(F)c(Cl)c1)c1cc(=O)c(OCc2ccc(F)cc2)co1 | Not fulfilled

----------
- TEST_METHOD_NOTES: gradient 5% acetonitrile 3 min, to 50% in 2 min, to 85% in 15 min, held 3 min, 100 µL/min
- CONDITIONS_USED: column: Zorbax Extend-C18 2.1 x 50 mm; eluents: water / acetonitrile, 0.1% formic acid
MEASURED_PARAMETER: RP-LC retention time (s)

COMPOUND | VALUE_REPORTED
CC(C)NC(=O)c1ccc(OCC2CCN(C(=O)Cc3ccccc3F)CC2)cc1 | 870
COc1ccc(-c2cn3ccn(-c4ccc(F)c(Cl)c4)c(=O)c3n2)cc1 | 862
CN1C(=O)C(C)(C(=O)NC2CCCCC2)Oc2cccnc21 (centres undefined) | 784
O=C(NC1CCCCCCC1)C1CCN(C(=O)c2cccn2-c2cccnc2)CC1 | 797
CCc1ccc(NC(=O)N2CCCC(C)(C(=O)NCc3ccc(C)cc3)C2)cc1 (centres undefined) | 1040
Cc1noc(C)c1-c1ccc(S(=O)(=O)Nc2cccc(Cl)c2)cc1 | 966
O=C(Nc1ccc(F)cc1)C1CCCN(c2ncnc3c2nc2n3CCCCC2)C1 (centres undefined) | 803
CCOc1ccc(CNC(=O)c2snc(C(=O)NCc3ccccc3Cl)c2N)cc1OCC | 1090
COc1cc(NC(=O)CCSc2ccccc2)c2ncccc2c1 | 1060
CC(=O)c1ccc(NC(=O)Cn2ccc3ccc(-c4nnc(C)o4)cc32)cc1 | 743
O=C(CSc1nccc(N2CCC(Cc3ccccc3)CC2)n1)NCCCc1ccccc1 | 906
COc1ccc(-c2nc(-c3cccc(-c4ccn[nH]4)c3)no2)c(OC)c1 | 936
CCC(C)NC(=O)N1CCN(Cc2nc3cc(C(C)(C)C)ccc3o2)CC1 (centres undefined) | 758
Cc1sc(NC(=O)Cc2csc(-c3ccccc3)n2)nc1-c1ccc(Cl)cc1 | 1280
CN(C)c1nccnc1OC1CCN(C(=O)c2ccccc2Br)C1 (centres undefined) | 752
CNC(=O)[C@H]1O[C@@H](n2cnc3c(NCc4ccc(N)cc4)ncnc32)C(O)[C@H]1O (some centres undefined) | 569
CCNc1nc(C)cc(N2CCN(S(=O)(=O)c3ccc(C(F)(F)F)cc3)CC2)n1 | 754
COc1ccc(NC(=O)Nc2ccc(-c3cn4cccnc4n3)cc2)cc1 | 616
Cc1nn(-c2ccccc2)c(C)c1S(=O)(=O)N1CCC(C(=O)NCCN2CCCCCC2)CC1 | 672
